# system: T1, 4H3343-AA
# T1 chain: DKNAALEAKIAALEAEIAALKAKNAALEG
# assay-notes: two-hybrid library CCmax;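 also: natural log of median RNA to DNA barcode read ratio; higher means stronger binding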
# condition-details: mean of both orientations
property-label: interaction score

1) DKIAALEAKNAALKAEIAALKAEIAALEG [4H2505-AA]; -1.59
2) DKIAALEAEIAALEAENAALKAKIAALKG [4H2078-AA]; -1.08
3) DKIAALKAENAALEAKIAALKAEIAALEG [4H2729-AA]; -1.17
4) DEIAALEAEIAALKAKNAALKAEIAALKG [4H122-AA]; -1.31
5) DKIAALKAKNAALEAEIAALEAKIAALEG [4H2949-AA]; -1.48
6) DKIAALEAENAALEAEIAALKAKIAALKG [4H2190-AA]; -1.32
7) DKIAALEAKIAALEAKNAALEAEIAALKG [4H2354-AA]; -1.47
8) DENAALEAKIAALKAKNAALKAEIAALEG [4H1401-AA]; -1.44
9) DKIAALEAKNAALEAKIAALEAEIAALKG [4H2466-AA]; -1.23
10) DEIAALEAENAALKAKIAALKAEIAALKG [4H234-AA]; -0.996

I. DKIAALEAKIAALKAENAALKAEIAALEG [4H2393-AA]
II. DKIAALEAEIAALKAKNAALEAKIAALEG [4H2165-AA]
Request: For the two items I and II , which reports the higher interaction score value? Refer to your chosen entry by its label in the reply.
Result: II
(II: -0.847, I: -1.29)
